The reported measurements were obtained from patent US20220281965A1.

Entries and their measured pIC50 follow.
Target: T1, mature human GDF-15 (human, UniProt Q99988 197-308)
T1 construct: Homodimer; also called hGDF-15; recombinant hu-GDF15
T1 sequence: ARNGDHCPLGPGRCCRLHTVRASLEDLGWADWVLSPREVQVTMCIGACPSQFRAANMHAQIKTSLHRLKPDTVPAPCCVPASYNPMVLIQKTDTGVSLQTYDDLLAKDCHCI
Experiment: HTRF epitope competition; competitor DyLight 650 labelled Antibody A; Europium labelled human GDF-15
Description: Antibodies from the immunizations with human GDF-15, in the form of crude supernatants from the immunization or in the form of purified IgGs, were chosen on the basis that they bind and compete with an epitope recognized by a control anti-GDF-15 antibody “Antibody A”. A biochemical epitope competition format was applied using an HTRF epitope competition assay that measured the binding of DyLight 650 labelled Antibody A to Europium labelled human GDF-15 (Prospec). […]
By convention, pIC50 is the negative base-10 log of a molar concentration.

{"binder": "AB1170246 (antibody, IgG1, V domains shown, Humanized IgG1 TM; not shown: human immunoglobulin kappa light chain constant domain) VH: QVQLQESGPGLLKPSQTLSLTCTVSGFSLITSGLGVSWIRQPAGKGLEWLAHIYWDDDKRYNPSLKSRLTISKDTSKNQVSLKLSSVTAADTAVYYCARGGYDGYYDYWGQGTTVTVSS VL: DVVMTQSPLSLPVTLGQPASISCRSSQSIVHSNGNTNLEWYLQKPGQSPQLLIYKVSNRLSGVPDRFSGSGSGTDFTLKISRVEAEDVGVYYCFQGSHVRTFGQGTKLEIK", "measured-number": 8.30}
{"binder": "AB1170069 (antibody, V domains shown) VH: QVQLQQSGPELVKPGASVKLSCKASGYTFTSYDINWVKQRPGQGLEWIGWIYPRDGISKYNEKFEGKATLTVDTSSSTAYMELHSLTSEDSAVYFCAGTSDPAYFDYWGQGTTLTVSS VL: DIVLTQSPATLSVTPGDRVSLSCRASQSISYYLHWYQQKSHESPRLLIKYASQSISGIPSRFSGSGSGTDFTLSINSVETEDFGMYFCQQSNSWPYTFGGGTKLEIK", "measured-number": 9.12}
{"binder": "AB1170028 (antibody, V domains shown) VH: DVKLVESGEGLVKPGGSLKLSCAASGFTFSSFAMSWVRQTPEKRLEWVAYITSGGDYIFYADTVKGRFTISRDNARNTLYLQMSSLKSEDTAMYYCTRDDGYLWFAYWGQGTLVTVSA VL: SIVMTQTPKFLPVSAGDRVTMTCKASQNVGNNVAWYQQKPGQSPKLLIYYASNRYTGVPDRFTGSGSGTDFTFTISSVQVEDLAVYFCQQHYSSPLTFGAGTKLELK", "measured-number": 9.31}
{"binder": "AB1170019 (antibody, V domains shown) VH: EVQLQQSGPELVKPGASVKIPCKASGYTFTDYNMDWVKQSHGKSLEWIGDINPNNGGTFYNQKFKDKATLTVDKSSSTAYMELRSLTSEDTAVYYCAREEKLYFGLMDYWGQGTSVTVSS VL: DIQMTQSPASLSASVGETVTITCRASENIYSYLAWYQQKQGKSPQLLVYNAKTLAEGVPSRFSGSGSGIQFSLKINILQPEDFGNYYCQHQYGSPPTFGGGTKLEIK", "measured-number": 9.06}

Req: What value of measured pIC50 is listed for AB1170245 (antibody, IgG1, V domains shown, Humanized IgG1 TM; not shown: human immunoglobulin kappa light chain constant domain) VH: EVQLVESGGGLVKPGGSLRLSCAASGFTFSSYAMSWVRQAPGKGLEWVAYISSGGDYIYYADTVKGRFTISRDNSKNTLYLQMNSLKTEDTAVYYCTRALVDNAYFDYWGQGTTVTVSS VL: DIVLTQSPDSLAVSLGERATINCRASKSVSTSSYSYMHWYQQKPGQPPKLLIKYASYLEFGVPSRFSGSGSGTDFTLTISSLQPEDVATYYCQHSREFPWTFGGGTKVEIK ?
Resp: 8.65
